- System: NOMO1
- EXPERIMENTAL_DETAILS: AUC of viability dose-response curve (% viability x log10 dose units); higher = less sensitive
- RUN_CONDITIONS: RPMI 5 mM glucose + 10% dialyzed FBS; 48 h
Recorded AUC of viability dose-response curve, one value per entry.

Past entries and their recorded results:
>>> result("Nc1ccccc1NC(=O)c1ccc(CNc2nccc(-c3cccnc3)n2)cc1")
353
>>> result("O=C(NOC[C@H](O)CO)c1ccc(F)c(F)c1Nc1ccc(I)cc1F")
260
>>> result("CNC(=O)c1cccc(-c2ccc3c(N4CCOC[C@@H]4C)nc(N4CCOC[C@@H]4C)nc3n2)c1")
323
>>> result("COC(=O)N1CCN(Cc2cccc(NC(=O)Nc3ccc(C)nc3)c2F)CC1")
434
>>> result("O=C1Nc2ccccc2/C1=C1\\Nc2ccccc2C1=O")
442
>>> result("Fc1ccc(CNc2ncnc3ccc(F)cc23)cc1")
419

Return reported AUC of viability dose-response curve; argument: `Cc1cc(Nc2ncc(Cl)c(Nc3ccccc3[S+](=O)([O-])C(C)C)n2)c(OC(C)C)cc1C1CCNCC1`
395

Record: `CO/N=C(/C(=O)N[C@@H]1C(=O)N2C(C(=O)O)=C(Cn3ccc(=N)n3CCO)CS[C@H]12)c1csc(N)n1`
459

Now consider COCCOC(=O)C/1=C(C)/NC/2=C(C1C3=CC=CC(=C3)O)/C(=O)CC(C2)C4=C(OC)C=CC=C4 (centres undefined) and answer again.
467

====

- Test system: SEM cells
- EXPERIMENTAL_DETAILS: cell viability relative to DMSO control; higher = less cytotoxic
- RUN_CONDITIONS: RPMI 5 mM glucose + 10% FBS; 48 h; 15.4 µM
Mark label 1 only when cell viability stays strictly below 70%. Values equal to the cut-off are label 0.

Past entries and their recorded results:
>>> class_name("CO[C@H]1C[C@@H]2CC[C@@H](C)[C@@](O)(O2)C(=O)C(=O)N2CCCC[C@H]2C(=O)O[C@H]([C@H](C)C[C@@H]2CC[C@@H](OP(C)(C)=O)[C@H](OC)C2)CC(=O)[C@H](C)/C=C(\\C)[C@@H](O)[C@@H](OC)C(=O)[C@H](C)C[C@H](C)/C=C/C=C/C=C/1C")
"label 1"
>>> class_name("OC[C@H]1O[C@@H](Oc2ccc(O)cc2)[C@H](O)[C@@H](O)[C@@H]1O")
"label 0"
>>> class_name("O=[N+]([O-])c1cn2c(n1)OC[C@@H](OCc1ccc(OC(F)(F)F)cc1)C2")
"label 0"

I'd appreciate it if you could check whether `Nc1nc(-c2nn(Cc3ccccc3F)c3ncccc23)nc(N)c1N1CCOCC1` has cell viability smaller than 70%.
label 0

Ok, now `CNC(=O)c1cccc(-c2ccc3c(N4CCOC[C@@H]4C)nc(N4CCOC[C@@H]4C)nc3n2)c1`
label 1

Let us now turn to `COc1cc2c(N3CCN(C(=O)Nc4ccc(OC(C)C)cc4)CC3)ncnc2cc1OCCCN1CCCCC1`
label 1

====

- System: P12-Ichikawa
- EXPERIMENTAL_DETAILS: AUC of viability dose-response curve (% viability x log10 dose units); higher = less sensitive
- RUN_CONDITIONS: RPMI 5 mM glucose + 10% dialyzed FBS; 48 h
AUC of viability dose-response curve: recorded values

>>> result("C[C@]\\1(CCS\\C(=N1)N)C2=CC(=C(F)C=C2F)C3=CN=CN=C3")
435
>>> result("Cn1c2ccccc2c2c3c(c4c5ccccc5n(CCC#N)c4c21)CNC3=O")
367
>>> result("FC(F)(F)c1ccc(Nc2nc3cc(Oc4ccnc(-c5ncc(C(F)(F)F)[nH]5)c4)ccc3[nH]2)cc1")
458

Would you mind telling me what AUC of viability dose-response curve value was observed for `CNC(=O)c1ccccc1Nc1nc(Nc2ccc(N3CCOCC3)cc2OC)ncc1Cl` ?
416

====

- Test system: NOMO1
- EXPERIMENTAL_DETAILS: cell viability relative to DMSO control; higher = less cytotoxic
- RUN_CONDITIONS: HPLM + 10% dialyzed FBS; 48 h; 0.0211 µM
ASSAY_ENDPOINT: cell viability

Take a look at these entries with their results.
>>> result("CO/N=C(/C(=O)N[C@@H]1C(=O)N2C(C(=O)O)=C(Cn3ccc(=N)n3CCO)CS[C@H]12)c1csc(N)n1")
"136%"
>>> result("NC1CCC(N[C@@H]2C[C@H]2c2ccccc2)CC1 (stereo partly specified)")
"93.3%"

Report cell viability for `O=C1\C=C(/OC2=C1C=CC=C2C3=CC=CC=C3)N4CCOCC4` please.
90.4%

Also `COc1cc2nccc(Oc3ccc(NC(=O)C4(C(=O)Nc5ccc(F)cc5)CC4)cc3)c2cc1OC` ?
116%

Please do the same for `C[C@]\1(CCS\C(=N1)N)C2=CC(=C(F)C=C2F)C3=CN=CN=C3` as well.
95.2%

Repeat with `COc1cc2nccc(Oc3ccc(NC(=O)Nc4cc(C)on4)c(Cl)c3)c2cc1OC`
138%

Let us now turn to `CC[C@]1(O)C[C@H]2CN(CCC3=C([NH]C4=C3C=CC=C4)[C@@](C2)(C(=O)OC)C5=CC6=C(C=C5OC)N(C=O)[C@H]7[C@](O)([C@H](OC(C)=O)[C@]8(CC)\C=C/C[N@@]9CC[C@]67[C@H]89)C(=O)OC)C1`
110%

====

# cell viability annotations
- Test system: SEM cells
- EXPERIMENTAL_DETAILS: cell viability relative to DMSO control; higher = less cytotoxic
- RUN_CONDITIONS: HPLM + 10% dialyzed FBS; 48 h; 0.19 µM
Output spec: scalar in %, unitless text.

>>> numeric_value("O=C([O-])Cc1ccccc1Nc1c(Cl)cccc1Cl")
129

Could you share which cell viability value was measured for `OC[C@H]1O[C@@H](Oc2ccc(O)cc2)[C@H](O)[C@@H](O)[C@@H]1O` ?
95.1

Repeat for the following molecule: `C1Cc2[nH]nc(-c3nn[nH]n3)c2C1`
104

Can you check `C[C@@H]1CC[C@@]2(OC1)O[C@H]3C[C@H]4[C@@H]5C/C=C6/C[C@H](CC[C@]6(C)[C@H]5CC[C@]4(C)[C@H]3[C@@H]2C)O[C@@H]7O[C@H](CO)[C@@H](O[C@@H]8O[C@@H](C)[C@H](O)[C@@H](O)[C@H]8O)[C@H](O)[C@H]7O[C@@H]9O[C@@H](C)[C@H](O)[C@@H](O)[C@H]9O` next?
117

Query `CN(C)Cc1ccc(-c2nc3cccc4c3n2CCNC4=O)cc1` next
118

Please give the result for CCCCN(CCCC)CCC(O)c1cc2c(Cl)cc(Cl)cc2c2cc(C(F)(F)F)ccc12 (configuration not stated) too.
122

Then this molecule: `C[C@H](NC(=O)C(=O)Nc1ccccc1C(C)(C)C)C(=O)N[C@@H](CC(=O)O)C(=O)COc1c(F)c(F)cc(F)c1F`
113

====

- Tested on: NOMO1
- EXPERIMENTAL_DETAILS: cell viability relative to DMSO control; higher = less cytotoxic
- RUN_CONDITIONS: RPMI 5 mM glucose + 10% FBS; 48 h; 0.569 µM
ASSAY_ENDPOINT: cell viability (%)
Your answer should be a plain number; it is taken to be in %.

The following compounds have reported results that may help.
>>> numeric_value("Cc1cc(Nc2ncc(Cl)c(Nc3ccccc3[S+](=O)([O-])C(C)C)n2)c(OC(C)C)cc1C1CCNCC1")
115
>>> numeric_value("O=C1\\C=C(/OC2=C1C=CC=C2C3=CC=CC=C3)N4CCOCC4")
81.7
>>> numeric_value("Cc1nc(Nc2ncc(C(=O)Nc3c(C)cccc3Cl)s2)cc(N2CCN(CCO)CC2)n1")
117
>>> numeric_value("COC[C@H](NC(=O)c1cnc(C)s1)C(=O)N[C@@H](COC)C(=O)N[C@@H](Cc1ccccc1)C(=O)[C@@]1(C)CO1")
28.1
>>> numeric_value("O=C1NC(=O)[C@@H](c2cn3c4c(cccc24)CCC3)[C@@H]1c1c[nH]c2ccccc12")
110

// query cell viability value for entry `Cc1ccc(NC(=O)c2ccc(CN3CCN(C)CC3)cc2)cc1Nc1nccc(-c2cccnc2)n1`
114

For CCOC(=O)C/1=C(C)/NC(=S)NC1C2=CC=CC(=C2)O (centres undefined) then?
22.7

====

- System: SEM cells
- EXPERIMENTAL_DETAILS: cell viability relative to DMSO control; higher = less cytotoxic
- RUN_CONDITIONS: RPMI 5 mM glucose + 10% FBS; 48 h; 5.12 µM
Form field: cell viability (one value per entry).
I'd appreciate it if you included the unit after the number.

The following compounds have reported results that may help.
>>> result("COc1ccc(/C=C\\c2cc(OC)c(OC)c(OC)c2)cc1O")
"5.21%"
>>> result("CCC(=O)O[C@@]1([C@@H](C)C[C@H]2[C@@H]3CCC/4=C/C(=O)/C=C\\[C@]4(C)[C@@]3(F)[C@@H](O)C[C@]12C)C(=O)CCl")
"67.6%"
>>> result("O=C(O)c1ccc2cc(-c3ccc(O)c(C45CC6CC(CC(C6)C4)C5)c3)ccc2c1")
"10.5%"
>>> result("Cc1nc(Nc2ncc(C(=O)Nc3c(C)cccc3Cl)s2)cc(N2CCN(CCO)CC2)n1")
"60.1%"

Consider the additional compound presented here.
Please tell me: cell viability of CCOC(=O)C/1=C(C)/NC(=S)NC1C2=CC=CC(=C2)O (stereo not given) , system SEM cells?
6.19%
